// data source = patent US12371454B2

- measured-on: Kras and SOS1 (biotin-tagged human Kras loaded with GDP, His-tagged human SOS1) (Homo sapiens, UniProt P01116, G12D)
- Construct: made in house; host or cells: E. coli (stated for Kras only)
- Sequence (P01116 1-188 isoform P01116-2 G12D): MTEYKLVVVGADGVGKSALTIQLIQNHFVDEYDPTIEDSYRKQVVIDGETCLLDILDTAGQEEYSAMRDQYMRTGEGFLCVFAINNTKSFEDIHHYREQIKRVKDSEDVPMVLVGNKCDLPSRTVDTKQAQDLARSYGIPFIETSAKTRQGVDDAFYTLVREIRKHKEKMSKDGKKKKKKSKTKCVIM
- experimental-protocol: Protein-protein interaction inhibition between Kras and SOS1 (KrasGl2D-SOS PPI) using AlphaScreen
- Assay type: binding
- test-settings: AlphaScreen; biotin-tagged human Kras loaded with GDP, His-tagged human SOS1; read-out: KRAS G12D-SOS PPI IC50
Positions of bridges follow the written chain, without caps; N, C: chain ends. Non-standard residues stand in square brackets, D forms with d. Residues, ends and D or L forms follow the SMILES beside them. *: point of attachment. hPhe(3-Cl-4-CF3) = N[C@@H](CCc1ccc(C(F)(F)F)c(Cl)c1)C(=O)O; NMeDab(N,N-(CH2CF2CH2)) = CN[C@@H](CCN1CC(F)(F)C1)C(=O)O; NMeCha = CN[C@@H](CC1CCCCC1)C(=O)O; NMeGly(cPr) = CN[C@H](C(=O)O)C1CC1; NMeD = CN[C@@H](CC(=O)O)C(=O)O; NMeV = CN[C@H](C(=O)O)C(C)C; d(β3hA) = C[C@@H](N)CC(=O)O; NMeA = CN[C@@H](C)C(=O)O; Piperidide = C1CCN(*)CC1; Ac5c = NC1(C(=O)O)CCCC1; Sar = CNCC(=O)O; Propyl = CCC*
Please provide measured pIC50 for the entries that follow.
Hey, just a heads up that pIC50 is the negative log base 10 of the concentration in molar.

Suppose we examine the molecule CCCOC[C@@H]1NC(=O)[C@H](CCN2CC(F)(F)C2)N(C)C(=O)[C@H](CCc2ccc(C(F)(F)F)c(Cl)c2)NC(=O)CN(C)C(=O)[C@H](CC2CCCCC2)N(C)C(=O)CN(C)C(=O)CN(C)C(=O)[C@H]([C@@H](C)CC)NC(=O)[C@H](C)N(C)C(=O)C[C@@H](C(=O)N2CCCCC2)N(C)C(=O)[C@H](C(C)C)N(C)C1=O [Compound 154] ([NMeA]I[Sar][Sar][NMeCha][Sar][hPhe(3-Cl-4-CF3)][NMeDab(N,N-(CH2CF2CH2))]S(Propyl)[NMeV][NMeD]-Piperidide; lactam N-11) ; what pIC50 value has been reported?
8.32

Which value of pIC50 has been reported for CC[C@H](C)[C@@H]1NC(=O)[C@H](C2CC2)N(C)C(=O)C[C@@H](C)NC(=O)[C@H](C(C)C)N(C)C(=O)C2(CCCC2)NC(=O)[C@@H]2CCCN2C(=O)[C@H](CCc2ccc(C(F)(F)F)c(Cl)c2)NC(=O)CN(C)C(=O)[C@H](CC2CCCCC2)N(C)C(=O)CN(C)C(=O)CN(C)C1=O [Compound 844] (cyclo([Ac5c][NMeV][d(β3hA)][NMeGly(cPr)]I[Sar][Sar][NMeCha][Sar][hPhe(3-Cl-4-CF3)]P)) in the records?
7.55
